target: HIV protease (Human immunodeficiency virus type 1 group M subtype B, UniProt P04585)
endpoint: IC50

- lineNotation: "C[C@@H](C(=O)N[C@@H](Cc1ccccc1)[C@H](O)CN1C[C@H]2CCCC[C@H]2C[C@H]1C(=O)NC(C)(C)C)C(C)(C)C(N)=O"
  result: "9 nM"

###

system: CEM cells; assay: CEM cell assay, intrinsic toxicity of test compound without virus (MTT); assay type: cell-based; conditions: 7 days, concentration reducing cellular viability by 50%

- lineNotation: "C[C@@H](C(=O)N[C@@H](Cc1ccccc1)[C@H](O)CN1C[C@H]2CCCC[C@H]2C[C@H]1C(=O)NC(C)(C)C)C(C)(C)C(N)=O"
  Cell Toxicity (TD50): "59,000 nM"
- lineNotation: "C[C@@H](C(=O)N[C@@H](Cc1ccccc1)[C@H](O)CN1C[C@H]2CCCC[C@H]2C[C@H]1C(=O)NC(C)(C)C)C(C)(C)C(=O)O"
  Cell Toxicity (TD50): "50,000 nM"
- lineNotation: "COc1ccc(COC(=O)NC[C@@H](C)C(=O)N[C@@H](Cc2ccccc2)[C@H](O)CN2C[C@H]3CCCC[C@H]3C[C@H]2C(=O)NC(C)(C)C)cc1"
  Cell Toxicity (TD50): "2,000 nM"
- lineNotation: "C[C@H](CS(C)(=O)=O)C(=O)N[C@@H](Cc1ccccc1)[C@H](O)CN1C[C@H]2CCCC[C@H]2C[C@H]1C(=O)NC(C)(C)C"
  Cell Toxicity (TD50): "58,000 nM"
- lineNotation: "CC(C)(C)NC(=O)[C@@H]1C[C@@H]2CCCC[C@@H]2CN1C[C@@H](O)[C@H](Cc1ccccc1)NC(=O)C[C@H](NC(=O)c1ccc2ccccc2n1)C(N)=O"
  Cell Toxicity (TD50): "5,000 nM"
